Source: PubChem BioAssay (NCI)

System: HCT-116 colon
MEASUREMENT DESCRIPTION: NCI-60 one-dose screen, 48 h
ASSAY CONTEXT: 10 µM unless noted
About 83,000 compounds went through this panel and 20% of them were active in at least one assay; those are over-represented in the sample as a whole. Activity calls are given as the source filed them. Rule for the calls: active = growth percent below 10; inactive = the rest.
Return exactly one item of active, inactive

{"MOLECULE": "CC/C(=C(\\CC)c1ccc(OCCN(CC)CC)cc1)c1ccc(OCCN(CC)CC)cc1", "LABEL": "inactive"}
{"MOLECULE": "COc1cc2c(/C=C3/C(=O)Nc4ccc(O)cc43)c(Cl)n(Cc3cc(OC)c(OC)c(OC)c3)c2cc1C", "LABEL": "inactive"}
{"MOLECULE": "O=[N+]([O-])c1ccc(NS(=O)(=O)c2ccccc2)c2ccccc12", "LABEL": "inactive"}
{"MOLECULE": "ClC1c2ccccc2CCc2ccccc21", "LABEL": "inactive"}
{"MOLECULE": "O=C1CN(CCN2CC(=O)NC(=O)C2)CC(=O)N1", "LABEL": "inactive"}

Kindly provide the recorded test outcome for the following molecule: COc1ccc(-c2ccc(NC(=O)Nc3cccc(C(F)(F)F)c3)c(C)n2)cc1
inactive

Kindly provide the recorded test outcome for the following molecule: OCc1cn(-c2ccc(Cl)cc2)nc1-c1ccc(O)cc1
inactive

Kindly provide the recorded test outcome for the following molecule: CCn1c(SCC(=O)c2ccc(Br)cc2)nnc1-c1cc2c([nH]c3ccccc32)c(-c2cccc(O)c2)n1
inactive

Kindly provide the recorded test outcome for the following molecule: O=C(Nc1cccc(-n2ccc3c(NC(=O)c4ccccc4)nccc32)c1)c1cc(N2CCOCC2)cc(C(F)(F)F)c1
active

Kindly provide the recorded test outcome for the following molecule: COc1ccc(Cl)cc1NC(=O)c1cc2c([nH]1)-c1nc(NC(=O)C(C)(C)C)sc1CC2
inactive

Kindly provide the recorded test outcome for the following molecule: CCCCNC(=O)Oc1ccc(/C(=C(/CC)Cc2ccccc2)c2ccc(OCCCN(C)C)cc2)cc1
inactive

Kindly provide the recorded test outcome for the following molecule: CN1C(=O)C2(SCC(C(=O)NCC(=O)OC(C)(C)C)N2C(=O)C2CCCCC2)c2ccccc21 (centres undefined)
inactive

Kindly provide the recorded test outcome for the following molecule: C=C(C)[C@@H]1C/C=C(\COC(=O)[C@H](OC(C)=O)C(NC(=O)c2ccccc2)c2ccccc2)CC[C@H]2O[C@]2(C)CC/C=C(\C)CC1 (some centres undefined)
inactive

Kindly provide the recorded test outcome for the following molecule: Cc1cc(N2CCOCC2)nc(N(CCNc2ccnc3cc(Cl)ccc23)Cc2ccco2)n1
inactive

Kindly provide the recorded test outcome for the following molecule: O=C(NCCNc1nccc(-c2c(-c3cccc(O)c3)nc3sccn23)n1)c1ccccc1
inactive

Kindly provide the recorded test outcome for the following molecule: COc1ccccc1C(OC(C)=O)OC(C)=O
inactive

Kindly provide the recorded test outcome for the following molecule: Nc1ncnc2c1ncn2C1OC(COC(c2ccccc2)(c2ccccc2)c2ccccc2)C(O)C1O (centres undefined)
inactive
